- SYSTEM_TESTED: human bitter receptor TAS2R39 (Homo sapiens, UniProt P59534)
- Construct: expressed in transfected cells; host or cells: HEK293 (tetracycline/doxycycline-inducible expression; blasticidin, geneticin and hygromycin selection)
- Sequence (P59534 whole entry): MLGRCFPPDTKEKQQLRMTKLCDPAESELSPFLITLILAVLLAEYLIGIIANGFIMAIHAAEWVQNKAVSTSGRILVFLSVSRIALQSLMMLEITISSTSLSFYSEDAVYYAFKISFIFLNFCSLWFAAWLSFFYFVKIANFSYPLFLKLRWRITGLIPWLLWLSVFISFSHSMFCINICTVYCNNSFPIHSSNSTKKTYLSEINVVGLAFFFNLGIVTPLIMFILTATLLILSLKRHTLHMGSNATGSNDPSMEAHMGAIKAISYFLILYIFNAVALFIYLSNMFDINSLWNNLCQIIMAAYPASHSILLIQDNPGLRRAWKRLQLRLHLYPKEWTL
- MEASUREMENT_NOTES: Inhibition of ECG stimulation of TAS2R39, intracellular calcium (Fluo4-AM fluorescence) assay
- Type: cell-based
- TEST_SETTINGS: HEK293 cells expressing TAS2R39; test solution 0.5 mM ECG and 10 mM test compound in Tyrodes buffer; percentage reduction of ΔF vs ECG alone
- Description: Activation of the bitter receptor TAS2R39 causes the release of calcium from the endoplasmic reticulum of those cells containing the receptor. […] HEK293 cells expressing the human bitter receptor TAS2R39 and a G-protein that allows coupling to a calcium readout system were maintained in Dulbecco's Modified Eagle's Medium (DMEM) containing DMEM and 10% tetracycline-free fetal bovine serum (Cambrex) supplemented with blasticidin (5 μg/ml) geneticin (400 μg/ml) and hygromycin (100 μg/ml). […]
Label n if % inhibition of TAS2R39 falls below 20%; label y in every other case.

Solved entries (count: 6):
{"columns": ["COMPOUND", "ANSWER_LABEL"],
 "data": [
  ["COc1cc(/C=C/C(=O)O)cc(OC)c1OC", "y"],
  ["O=C(O)c1ccc(O)c(O)c1 [3,4-dihydroxybenzoic acid, reference compound]", "n"],
  ["COc1ccccc1/C=C/C(=O)O [2-methoxycinnamic acid, reference compound]", "n"],
  ["COc1ccc(/C=C/C(=O)O)c(OC)c1", "y"],
  ["COc1ccc(/C=C/C(=O)O)cc1", "y"],
  ["COc1ccc(C(=O)O)cc1 [4-methoxybenzoic acid, reference compound]", "n"]
]}

Q. # check: % inhibition of TAS2R39 of O=C(O)CCc1ccccc1 [3-phenylpropanoic acid, reference compound] is greater than or equal to 20%
A. n

Q. # check: % inhibition of TAS2R39 of COc1ccc(CC(=O)O)cc1 [4-methoxyphenylacetic acid, reference compound] is greater than or equal to 20%
A. n
